test system: Cryptococcus neoformans; test: Antifungal activity against Cryptococcus neoformans ATCC 32264 at 50 uM after 48 hrs relative to amphotericin B; type: functional; conditions: ATCC 32264, 48 h
Decision: inhibition at 50 µM >= 40% yields 1 (yes), all other cases yield 0 (no).

INSERT INTO measurements (substance, system_tested, group_label) VALUES
  ('H-HYRWGKFV-NH2', 'Cryptococcus neoformans', '0 (no)'),
  ('H-HFRWGRFV-NH2', 'Cryptococcus neoformans', '1 (yes)'),
  ('H-HFRWGKPV-NH2', 'Cryptococcus neoformans', '0 (no)'),
  ('H-HFRWGKYV-NH2', 'Cryptococcus neoformans', '1 (yes)'),
  ('H-HFKWGKYV-NH2', 'Cryptococcus neoformans', '1 (yes)'),
  ('H-HFRWGKFV-NH2', 'Cryptococcus neoformans', '0 (no)'),
  ('H-HYKWGKFV-NH2', 'Cryptococcus neoformans', '1 (yes)');

----------
system: Candida albicans; assay: Antifungal activity against Candida albicans 10231 at 100 uM after 24hrs relative to amphotericin B; format: functional
Recorded inhibition at 100 µM for the following substances
MEASURED_QUANTITY: inhibition at 100 µM

INSERT INTO measurements (substance, measured_quantity, experimental_value) VALUES
  ('H-HFRWGKPV-NH2', 'inhibition at 100 µM', '0%'),
  ('H-HYKWGRFV-NH2', 'inhibition at 100 µM', '0%'),
  ('H-HFRWGKYV-NH2', 'inhibition at 100 µM', '0%'),
  ('H-HYKWGKFV-NH2', 'inhibition at 100 µM', '0%'),
  ('H-HFKWGKFV-NH2', 'inhibition at 100 µM', '0%'),
  ('H-HFRWGRFV-NH2', 'inhibition at 100 µM', '1%'),
  ('H-HYRWGKFV-NH2', 'inhibition at 100 µM', '0%'),
  ('H-HFKWGKYV-NH2', 'inhibition at 100 µM', '0%'),
  ('H-HFRWGKFV-NH2', 'inhibition at 100 µM', '5%'),
  ('H-HYKWGKYV-NH2', 'inhibition at 100 µM', '0%');

----------
tested on: Cryptococcus neoformans; assay: Antifungal activity against Cryptococcus neoformans ATCC 32264 at 12.5 uM after 48 hrs relative to amphotericin B; assay type: functional; conditions: ATCC 32264, 48 h
MEASURED_QUANTITY: inhibition at 12.5 µM (%)

INSERT INTO measurements (substance, measured_quantity, unit_text, experimental_value) VALUES
  ('H-HFRWGRFV-NH2', 'inhibition at 12.5 µM', '%', 26),
  ('H-HFRWGKPV-NH2', 'inhibition at 12.5 µM', '%', 0),
  ('H-HFKWGKFV-NH2', 'inhibition at 12.5 µM', '%', 0),
  ('H-HYRWGKFV-NH2', 'inhibition at 12.5 µM', '%', 21),
  ('H-HFKWGKYV-NH2', 'inhibition at 12.5 µM', '%', 40),
  ('H-HFRWGKYV-NH2', 'inhibition at 12.5 µM', '%', 28),
  ('H-HYKWGKFV-NH2', 'inhibition at 12.5 µM', '%', 34),
  ('H-HYKWGKYV-NH2', 'inhibition at 12.5 µM', '%', 19),
  ('H-HFRWGKFV-NH2', 'inhibition at 12.5 µM', '%', 0);
